Below, each entry is listed alongside its reported EC50.
- STUDY TARGET: hTRPM8 (Homo sapiens)
- Construct: expressed in transfected cells
- TEST PROTOCOL: Assay on TRPM8 modulators: calcium imaging (Fluo-4, Flexstation) in HEK293 cell line stably expressing hTRPM8
- Format: cell-based
- RUN PARAMETERS: HEK293 cells stably expressing hTRPM8, calcium influx, sigmoidal dose-response fit; read-out: EC50
ASSAY ENDPOINT: EC50

1) Cc1ccncc1C1(C)CC(C)C2C(C1)C(C)(C)ON2C (centres unmarked); 300 to 1000 nM
2) CC(C)N1OC(C)(C)[C@@H]2C[C@](C)(c3ccccc3)C[C@H](C)[C@H]21 (racemic); 50 to 300 nM
3) Cc1cccc([C@@]2(C)C[C@@H]3[C@@H]([C@@H](C)C2)N(C)OC3(C)C)c1C (racemic); 50 to 300 nM
4) C[C@H]1C[C@@](C)(c2cccc(F)c2)C[C@@H]2[C@@H]1N(C)OC2(C)C (racemic); 50 to 300 nM
5) COc1ccccc1[C@@]1(C)C[C@@H]2[C@@H]([C@@H](C)C1)N(C(C)C)OC2(C)C (racemic); 50 to 300 nM
6) CCN1OC(C)(C)[C@@H]2C[C@H](c3ccccc3OC)C[C@H](C)[C@H]21 (racemic); < 50 nM
7) CC1CC(C)[C@@H]2[C@@H](C1C)C(C)(C)ON2C (mixture of isomers); 1000 to 35000 nM
8) CC1CC(C)C2C(C1)C(C)(C)ON2C(C)C (centres unmarked) [Compound 11]; 300 to 1000 nM

====

- STUDY TARGET: hTRPM8 (Homo sapiens, UniProt Q7Z2W7)
- Construct: expressed in transfected cells
- Sequence (Q7Z2W7 whole entry): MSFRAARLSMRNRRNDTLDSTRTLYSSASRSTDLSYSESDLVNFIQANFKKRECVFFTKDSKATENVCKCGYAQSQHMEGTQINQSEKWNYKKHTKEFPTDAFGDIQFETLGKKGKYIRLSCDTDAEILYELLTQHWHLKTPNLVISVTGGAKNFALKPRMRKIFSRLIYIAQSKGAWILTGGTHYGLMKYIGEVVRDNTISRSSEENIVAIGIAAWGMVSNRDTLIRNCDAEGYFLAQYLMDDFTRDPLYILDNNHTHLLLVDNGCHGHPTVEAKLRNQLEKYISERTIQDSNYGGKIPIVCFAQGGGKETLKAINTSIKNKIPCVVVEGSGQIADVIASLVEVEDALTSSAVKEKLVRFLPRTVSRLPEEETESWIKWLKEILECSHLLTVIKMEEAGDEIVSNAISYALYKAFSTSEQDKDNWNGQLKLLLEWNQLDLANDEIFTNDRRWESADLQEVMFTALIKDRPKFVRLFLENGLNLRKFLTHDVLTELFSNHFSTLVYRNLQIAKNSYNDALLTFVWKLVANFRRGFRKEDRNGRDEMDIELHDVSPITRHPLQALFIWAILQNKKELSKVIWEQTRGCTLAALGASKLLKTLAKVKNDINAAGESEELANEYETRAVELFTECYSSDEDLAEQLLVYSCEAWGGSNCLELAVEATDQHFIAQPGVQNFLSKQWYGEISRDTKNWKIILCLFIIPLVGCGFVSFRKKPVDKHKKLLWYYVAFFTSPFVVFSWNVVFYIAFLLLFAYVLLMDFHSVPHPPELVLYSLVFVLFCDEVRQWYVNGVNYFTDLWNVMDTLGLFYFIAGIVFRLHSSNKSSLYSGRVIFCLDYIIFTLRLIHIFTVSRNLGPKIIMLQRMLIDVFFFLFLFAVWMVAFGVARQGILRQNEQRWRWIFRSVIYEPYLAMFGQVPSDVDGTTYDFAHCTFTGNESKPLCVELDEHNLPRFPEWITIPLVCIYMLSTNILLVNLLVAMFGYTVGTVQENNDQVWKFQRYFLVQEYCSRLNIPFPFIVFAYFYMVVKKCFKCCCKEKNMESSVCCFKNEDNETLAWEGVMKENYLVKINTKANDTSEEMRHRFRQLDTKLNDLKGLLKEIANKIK
- TEST PROTOCOL: Assay on TRPM8 modulators: calcium imaging (Fluo-4, Flexstation) in HEK293 cell line stably expressing hTRPM8
- Assay type: cell-based
- RUN PARAMETERS: HEK293 cells stably expressing hTRPM8, calcium influx, sigmoidal dose-response fit; read-out: EC50
Below, each entry is listed alongside its reported EC50.
ASSAY ENDPOINT: EC50

1. COc1ccc([C@@]2(C)C[C@@H]3[C@@H]([C@@H](C)C2)N(C(C)C)OC3(C)C)cc1 (racemic) [Compound 67]; 1000 to 35000 nM
2. COc1ccc(C2(C)CC(C)C3C(C2)C(C)(C)ON3C)c(OC)c1 (stereo not shown) [Compound 16]; 300 to 1000 nM
3. CSc1ccccc1[C@]1(C)C[C@@H](C)[C@@H]2[C@@H](C1)C(C)(C)ON2C (racemic) [Compound 31]; 1000 to 35000 nM
4. Cc1ccc([C@@]2(C)C[C@@H]3[C@@H]([C@@H](C)C2)N(C)OC3(C)C)cc1 (racemic) [Compound 47]; 50 to 300 nM

====

Below, each entry is listed alongside its reported EC50.
- STUDY TARGET: hTRPM8 (Homo sapiens, UniProt Q7Z2W7)
- Construct: expressed in transfected cells
- TEST PROTOCOL: Assay on TRPM8 modulators: calcium imaging (Fluo-4, Flexstation) in HEK293 cell line stably expressing hTRPM8
- Type: cell-based
- RUN PARAMETERS: HEK293 cells stably expressing hTRPM8, calcium influx, sigmoidal dose-response fit; read-out: EC50
Counter-ions that a name gives are not always drawn.
ASSAY ENDPOINT: EC50

1. CCN1OC(C)(C)[C@@H]2C[C@](C)(c3ccccc3C)C[C@@H](C)[C@H]21 (racemic); 0.3 to 1 µM
2. CC1CC(C)C2C(C1)C(C)(C)ON2C (stereo not shown) [Compound 5, hydrochloride]; 1 to 35 µM
3. Cc1ccc(C#N)c([C@@]2(C)C[C@@H]3[C@@H]([C@@H](C)C2)N(C)OC3(C)C)c1 (racemic); 0.05 to 0.3 µM
4. CC[C@@H]1C[C@H](CC)[C@@H]2[C@@H](C1)C(C)(C)ON2C(C)C (racemic); 0.3 to 1 µM
